Experiment: cAMP Responsive Elements (CRE) small molecule agonists, cell-based qHTS assay: qHTS cell viability counter screen (AID 2060914);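 also: viability read after 3 h of compound exposure; nearly all actives have a fitted effect of over 50% in size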
Conditions: CRE-bla HEK293T viability, CellTiter-Glo luminescence, 5 h; series mostly up to 92.4 µM
Records with an inconclusive call do not appear. Active and inactive are the calls of the source. Calls follow the shape of the dose curve; as a rule, active = well fitted cell-killing curve with a large enough effect in the repeat runs; inconclusive = weak or mixed curves, or effect the other way; inactive = flat fitted curve, though single readings scatter.
Observation type: activity change, negative = cytotoxicity

1) CCCOC(=O)c1c(Cl)c(Cl)c(Cl)c(Cl)c1C(=O)OCCC    inactive
2) Cc1cccc(Nc2cc(Cl)nc(SCC(=O)O)n2)c1C    inactive
3) Cc1nc2n(c(=O)c1CCN1CCC(c3noc4cc(F)ccc34)CC1)CCCC2    inactive
4) CC[C@H]1OC(=O)[C@H](C)[C@@H](O[C@H]2C[C@@](C)(OC)[C@@H](O)[C@H](C)O2)[C@H](C)[C@@H](O[C@@H]2O[C@H](C)C[C@H](N(C)C)[C@H]2O)[C@](C)(OC)C[C@@H](C)C(=O)[C@H](C)[C@@H](O)[C@]1(C)O    inactive

## Input Supply activity change, negative = cytotoxicity value. Item: `COc1c(C)c2c(c(O)c1C/C=C(\C)CCC(=O)OCCN1CCOCC1)C(=O)OC2`
## Output inactive

## Input Supply activity change, negative = cytotoxicity value. Item: `CCC/C=C/C=O`
## Output inactive

## Input Supply activity change, negative = cytotoxicity value. Item: `CCN(CC)C(=O)N1CCN(C)CC1`
## Output inactive

## Input Supply activity change, negative = cytotoxicity value. Item: `Nc1ccc(N=Nc2ccccc2)c(N)n1`
## Output inactive

---

This listing pairs compounds with measured Potency.
Assay: cAMP Responsive Elements (CRE) small molecule agonists, cell-based qHTS assay: qHTS cell viability counter screen (AID 2060914); also: potency is read from the fitted curve at half-maximal effect;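 also: viability read after 3 h of compound exposure; nearly all actives have a fitted effect of over 50% in size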
Settings: CRE-bla HEK293T viability, CellTiter-Glo luminescence, 5 h; series mostly up to 92.4 µM
Records with an inconclusive call do not appear. Active and inactive are the calls of the source. The call rests on the fitted dose curve; in most records, active means well fitted cell-killing curve with a large enough effect in the repeat runs; inconclusive means weak or mixed curves, or effect the other way; inactive means flat fitted curve, though single readings scatter.

# annotated cases, reported Potency shown
1) C[n+]1cc2c3c(ccc2c2ccc4cc5c(cc4c21)OCO5)OCO3    3.26 µM (active)
2) CC(C)(C)CC(C)(C)c1ccccc1O    61.4 µM (active)
3) CCCC(c1cc(C(C)(C)C)c(O)cc1C)c1cc(C(C)(C)C)c(O)cc1C    31 µM (active)

## Input Supply Potency value. Item: `[Cl][Bi]([Cl])([c]1ccccc1)([c]1ccccc1)[c]1ccccc1`
## Output 43 µM (active)

## Input Supply Potency value. Item: `Cc1cc(CCN2CCN(c3nsc4ccccc34)CC2)cc2c1NC(=O)CC2(C)C`
## Output 68.6 µM (active)

## Input Supply Potency value. Item: `CC(C)=O`
## Output 25 µM (active)

## Input Supply Potency value. Item: CCCCC(CC)CN=C(N)NC(N)=NCCCCCCN=C(N)NC(N)=NCC(CC)CCCC (configuration not stated)
## Output 16.8 µM (active)

## Input Supply Potency value. Item: `Cc1c(C2(c3cc(Br)c(O)c(Br)c3C)OS(=O)(=O)c3ccccc32)cc(Br)c(O)c1Br`
## Output 52.9 µM (active)

---

Test: cAMP Responsive Elements (CRE) small molecule agonists, cell-based qHTS assay: qHTS cell viability counter screen (AID 2060914);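 also: viability read after 3 h of compound exposure; nearly all actives have a fitted effect of over 50% in size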
Settings: CRE-bla HEK293T viability, CellTiter-Glo luminescence, 5 h; series mostly up to 92.4 µM
Results filed as inconclusive are left out. Active and inactive are the calls of the source. Calls come from the whole dose curve; as a rule, active = well fitted cell-killing curve with a large enough effect in the repeat runs; inconclusive = weak or mixed curves, or effect the other way; inactive = flat fitted curve, though single readings scatter.
Observation type: activity change, negative = cytotoxicity

# annotated cases, reported activity change, negative = cytotoxicity shown
1. CCCNC(C)C(=O)Nc1c(C)csc1C(=O)OC (stereo not drawn)    inactive
2. c1ccc(-c2nn[nH]n2)cc1    inactive
3. CCC(C)(Oc1ccc(C2(c3ccc(OC(C)(CC)C(=O)O)cc3)CCCCC2)cc1)C(=O)O (stereo not drawn)    inactive
4. COc1cc(N)ccc1C    inactive
5. NS(=O)(=O)c1ccc(N2CCCCS2(=O)=O)cc1    inactive

Please examine the following record next.
## Input Supply activity change, negative = cytotoxicity value. Item: `CN(C)CCC[C@@]1(c2ccc(F)cc2)OCc2cc(C#N)ccc21`
## Output inactive
